MEASUREMENT_TARGET: Stp1 (UniProt B3LFK1)
Sequence: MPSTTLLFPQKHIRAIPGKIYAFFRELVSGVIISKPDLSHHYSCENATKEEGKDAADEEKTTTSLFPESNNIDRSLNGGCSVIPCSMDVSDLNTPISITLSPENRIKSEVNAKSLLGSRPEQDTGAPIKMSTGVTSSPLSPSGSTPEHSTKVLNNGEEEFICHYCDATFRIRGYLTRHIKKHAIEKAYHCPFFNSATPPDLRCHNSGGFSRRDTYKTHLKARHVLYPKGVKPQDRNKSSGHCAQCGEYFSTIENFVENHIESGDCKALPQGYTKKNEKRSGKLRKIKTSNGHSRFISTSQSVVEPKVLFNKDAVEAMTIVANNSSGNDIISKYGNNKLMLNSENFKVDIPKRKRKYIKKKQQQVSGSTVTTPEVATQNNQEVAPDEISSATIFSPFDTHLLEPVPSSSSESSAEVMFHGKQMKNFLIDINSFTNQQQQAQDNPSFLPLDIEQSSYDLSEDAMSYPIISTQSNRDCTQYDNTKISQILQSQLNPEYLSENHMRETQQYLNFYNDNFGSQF
TEST_PROTOCOL: PBM E-score (8-mer binding enrichment) (E-score (-0.5 to 0.5)); higher = stronger / more preferred TF binding
CONDITION_NOTES: protein concentration: 200 nM; construct: GST-full length
In all, about 33,000 sequences were measured (“E-score (-0.5 to 0.5)”: median about -0.016, highest 2% from about 0.32 on). The full list was thinned out, with the highest values kept by preference.
Consider the following partition of reported PBM E-score into named classes: low band: < 0.007; middle band: ≥ 0.007 and < 0.2; high band: ≥ 0.2

Please review the entries below; each comes with its answer.
[
  {
    "MACROMOLECULE_SEQUENCE": "GAGACGGA",
    "DISCRETE_LABEL": "middle band"
  },
  {
    "MACROMOLECULE_SEQUENCE": "GAACGGGA",
    "DISCRETE_LABEL": "low band"
  },
  {
    "MACROMOLECULE_SEQUENCE": "ATGTGCCG",
    "DISCRETE_LABEL": "high band"
  },
  {
    "MACROMOLECULE_SEQUENCE": "AATCTACC",
    "DISCRETE_LABEL": "low band"
  },
  {
    "MACROMOLECULE_SEQUENCE": "CAGCGCCC",
    "DISCRETE_LABEL": "middle band"
  },
  {
    "MACROMOLECULE_SEQUENCE": "ACTAAAGT",
    "DISCRETE_LABEL": "low band"
  }
]

// query Bin? `TAACGGCA`
// result high band

// query Bin? `GAGACGAC`
// result low band

// query Bin? `AGTGCCGA`
// result high band

----------
MEASUREMENT_TARGET: Stp1 (UniProt B3LFK1)
Sequence: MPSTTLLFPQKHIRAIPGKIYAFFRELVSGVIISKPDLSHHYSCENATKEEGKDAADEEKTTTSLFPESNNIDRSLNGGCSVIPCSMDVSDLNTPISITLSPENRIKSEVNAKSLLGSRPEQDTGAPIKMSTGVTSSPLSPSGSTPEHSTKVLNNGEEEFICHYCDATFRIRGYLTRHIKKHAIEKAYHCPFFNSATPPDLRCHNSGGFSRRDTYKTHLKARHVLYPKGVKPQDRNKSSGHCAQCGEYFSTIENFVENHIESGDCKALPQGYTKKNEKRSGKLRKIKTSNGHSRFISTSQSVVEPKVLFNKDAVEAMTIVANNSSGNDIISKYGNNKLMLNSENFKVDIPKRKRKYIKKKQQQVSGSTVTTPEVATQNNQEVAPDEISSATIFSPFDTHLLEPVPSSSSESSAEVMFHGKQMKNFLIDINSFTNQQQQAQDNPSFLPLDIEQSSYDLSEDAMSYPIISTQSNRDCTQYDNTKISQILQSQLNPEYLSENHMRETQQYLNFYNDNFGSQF
TEST_PROTOCOL: PBM E-score (8-mer binding enrichment) (E-score (-0.5 to 0.5)); higher = stronger / more preferred TF binding
CONDITION_NOTES: protein concentration: 200 nM; construct: GST-full length
In all, about 33,000 sequences were measured (“E-score (-0.5 to 0.5)”: median about -0.016, highest 2% from about 0.32 on). What follows is part of a selection rich in the highest values, with near analogues and random picks from the rest.
OBSERVED_PROPERTY: PBM E-score
Format: numeric value only, no unit, no commentary.

Record excerpt, results attached:
[
  {
    "MACROMOLECULE_SEQUENCE": "ACGCGGAT",
    "MEASURED_NUMBER": 0.236
  },
  {
    "MACROMOLECULE_SEQUENCE": "CCGCACCA",
    "MEASURED_NUMBER": 0.237
  },
  {
    "MACROMOLECULE_SEQUENCE": "AAGGCTCG",
    "MEASURED_NUMBER": -0.0294
  },
  {
    "MACROMOLECULE_SEQUENCE": "ACGCGGCT",
    "MEASURED_NUMBER": 0.446
  },
  {
    "MACROMOLECULE_SEQUENCE": "CGGCGGCC",
    "MEASURED_NUMBER": 0.214
  },
  {
    "MACROMOLECULE_SEQUENCE": "AAACGCCA",
    "MEASURED_NUMBER": 0.345
  }
]

// query I'd like to know its PBM E-score. The sequence in question is `AGCATGCG`
// result 0.016

// query I'd like to know its PBM E-score. The sequence in question is `ACAGCTCT`
// result -0.306
